- SYSTEM UNDER TEST: T1, BCMA-Fc fusion protein (Acrobiosystems, catalogue no. BC7-H5254) (human, UniProt Q02223 1-54)
- T1 construct: Bought fusion protein; Used as coated antigen in ELISA; also called BCMA抗原; BCMA-Fc抗原; not shown: human Fc
- T1 sequence (looked up): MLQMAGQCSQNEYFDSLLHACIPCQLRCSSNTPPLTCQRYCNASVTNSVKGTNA
- ASSAY REMARKS: ELISA on BCMA; EC50 relative to J6
REPORTED PROPERTY: Fold of J6 (EC50 ratio) (fold)
Output spec: scalar in fold, unitless text.

# BINDER, UNITS TEXT, Fold of J6 (EC50 ratio)
measured = [
    ("B10.3 (affinity-matured mutant of B10) (scFv, also called 突变体B10.3) scFv: QVQLQQSGAEVKKPGSSVKVSCKASGGTFSKSAIQWVRQAPGQGLEWMGGVIPIFGTANYAQKFQGRVTITADESTSTAYMELSSLRSEDTAVYYCARGWYLDLWGRGTLVTVSSGGSSRSSSSGGGGSGGGGLPVLTQPPSASGTPGQRVTISCSGSSNNIGGYSVNWYQQFPGTAPKLLIYRNNQRPSGVPDRFSGSKSGASASLAISGLQSEDEADYYCAAWDDSVIGWLFGTGTQLTVL", "fold", 1.29),
    ("B10.4 (affinity-matured mutant of B10) (scFv, also called 突变体B10.4) scFv: QVQLQQSGAEVKKPGSSVKVSCKASGGTFSKSAIMWVRQAPGQGLEWMGGVIPIFGTANYAQKFQGRVTITADESTSTAYMELSSLRSEDTAVYYCARGWYLDLWGRGTLVTVSSGGSSRSSSSGGGGSGGGGLPVLTQPPSASGTPGQRVTISCSGSSNNIGGYSVNWYQQFPGTAPKLLIYRNNQRPSGVPDRFSGSKSGASASLAISGLQSEDEADYYCAAWDDSVIGWLFGTGTQLTVL", "fold", 1.55),
    ("B10.5 (affinity-matured mutant of B10) (scFv, also called 突变体B10.5) scFv: QVQLQQSGAEVKKPGSSVKVSCKASGGTFSKSAIHWVRQAPGQGLEWMGGVIPIFGTANYAQKFQGRVTITADESTSTAYMELSSLRSEDTAVYYCARGWYLDLWGRGTLVTVSSGGSSRSSSSGGGGSGGGGLPVLTQPPSASGTPGQRVTISCSGSSSNIGGYSVNWYQQFPGTAPKLLIYRNNQRPSGVPDRFSGSKSGASASLAISGLQSEDVADYYCAAWDDSLIGYVFGTGTQLTVL", "fold", 1.35),
]

Please look at the following binder next.
Query block: Fold of J6 (EC50 ratio) lookup needed for B10.9 (affinity-matured mutant of B10) (scFv, also called 突变体B10.9) scFv: QVQLQQSGAEVKKPGSSVKVSCKASGGTFSKSAIQWVRQAPGQGLEWMGGVIPIFGTANYAQKFQGRVTITADESTSTAYMELSSLRSEDTAVYYCARGWYLDLWGRGTLVTVSSGGSSRSSSSGGGGSGGGGLPVLTQPPSASGTPGQRVTISCSGSSNNIGGYSVNWYQQFPGTAPKLLIYRNNQRPSGVPDRFSGSKSGASASLAISGLQSEDEADYYCAAWDDSEIGWLFGTGTQLTVL , thanks.
Result block: 1.43
